Data provenance: PubChem BioAssay AID330

// reported T/C per item
Tested on: P388 leukemia ip, CD2F1 mice, survival T/C
measurement.protocol: NCI In Vivo Anticancer Drug Screen. Data for tumor model P388 Leukemia (intraperitoneal) in CD2F1 (CDF1) mice
test.conditions: endpoint: median survival time; dose: 60.0 mg/kg/injection; schedule: Q01DX005 (ip); vehicle: saline with Tween-80; higher = longer survival
Experimental: The antitumor activity of compounds was measured in mice bearing transplantable tumors. Survival or tumor size were measured and the results are expressed as the measurement made in the treated group (T) divided by the measurement made in the vehicle treated control group (C). The tumor model used in this assay is P388 Leukemia (intraperitoneal) in CD2F1 (CDF1) mice
Inconclusive results and toxic doses are left out.

Example cases with answers are listed next.
INSERT INTO measurements (compound, recorded_measurement) VALUES
  ('CC(C)(C)c1ccc(C(=O)NCSCC(NC(=O)CCC(N)C(=O)O)C(=O)NCC(=O)O)cc1 (centres undefined)', '98 % of control'),
  ('Cc1cc(C)n2c(-c3ccccc3)c(C)c(C#N)c2n1', '106 % of control'),
  ('COC(=O)Cc1nc2ccccc2s1', '102 % of control');

Problem: Which measured T/C value corresponds to O=C1C(C2CCCCC2)=C2OCC3COC2(O3)c2ccccc21 (centres undefined) ?
Solution: 102 % of control

Problem: Proceed to "Fc1ccc(C(Nc2nncs2)Nc2nncs2)cc1F"
Solution: 101 % of control

Problem: Proceed to CC1(C)CC(=O)C2C(C1)OC1CC(C)(C)CC(=O)C1C2c1ccc2c(c1)OCO2 (centres undefined)
Solution: 104 % of control

Problem: Proceed to COc1cc(C(c2cc3c(cc2OC(C)=O)OCO3)C(C(C)=O)C(C)=O)cc(OC)c1OC(C)=O (centres undefined)
Solution: 90 % of control

Problem: Proceed to NC(CCCCCCC(N)C(=O)c1ccccc1)C(=O)c1ccccc1 (centres undefined)
Solution: 98 % of control

Problem: Proceed to CCOC(=O)C(CO)NC(=O)c1cnc2ccccc2c1 (centres undefined)
Solution: 99 % of control

Problem: Proceed to CCOC(=O)Nc1ccc(C2SCCN2C(=O)Nc2ccc(Cl)cc2)cc1 (centres undefined)
Solution: 100 % of control

Problem: Proceed to "Cc1ccc2occ(-c3nnc(NC(=O)c4ccccc4)s3)c(=O)c2c1"
Solution: 93 % of control

Problem: Proceed to "COc1cc([N+](=O)[O-])c(S(=O)(=O)O)cc1N"
Solution: 99 % of control

Problem: Proceed to COC(=O)C12C3C4C1C1C2C3C41C(=O)OC (centres undefined)
Solution: 102 % of control

Problem: Proceed to "Cc1ccc(S(=O)(=O)N2CCN(S(=O)(=O)c3ccc(C)cc3)COC2)cc1"
Solution: 102 % of control

Problem: Proceed to "O=C1CCCCCCCC(=O)Nc2ccc3nc4ccccc4c(c3c2)SCCCCCCCCCSc2c3ccccc3nc3ccc(cc23)N1"
Solution: 88 % of control

Problem: Proceed to "Nc1ccc2c(c1)C(=O)N(OS(=O)(=O)c1ccccc1)C2=O"
Solution: 106 % of control

Problem: Proceed to "S=C1NCN(CC2CC2)CN1"
Solution: 97 % of control

Problem: Proceed to "CCOC(=O)c1csc(Br)n1"
Solution: 104 % of control

Problem: Proceed to Nc1ncnc2nc(C3OC(CO)C(O)C3O)[nH]c12 (centres undefined)
Solution: 104 % of control

Problem: Proceed to "CC[C@@H](O)[C@H](CC[Se]c1ccccc1)C(=O)[C@H](O)C1CCCCC1"
Solution: 107 % of control

###

System: P388 leukemia ip, CD2F1 mice, survival T/C
measurement.protocol: NCI In Vivo Anticancer Drug Screen. Data for tumor model P388 Leukemia (intraperitoneal) in CD2F1 (CDF1) mice
test.conditions: endpoint: median survival time; dose: 25.0 mg/kg/injection; schedule: Q01DX009 (ip); vehicle: saline; higher = longer survival
Inconclusive results and toxic doses are left out.
// reported T/C per item

INSERT INTO results (compound, recorded_measurement) VALUES
  ('CCOC(=O)c1[nH]c(C)nc1/N=N/N(C)C', '119 % of control');

Problem: Which measured T/C value corresponds to "c1ccc2c(CC3=NCCN3)noc2c1" ?
Solution: 105 % of control

Problem: Proceed to "C[n+]1ccccc1C(=O)O"
Solution: 102 % of control

Problem: Proceed to "O=[N+]([O-])c1cc(NC(=S)SCc2ccc(Cl)cc2)ccc1Cl"
Solution: 105 % of control

Problem: Proceed to "Cn1c(=O)c2[nH]c(Cl)nc2n(C)c1=O"
Solution: 100 % of control

Problem: Proceed to "O=C(O)CSc1ccc2c3c(cccc13)C(=O)c1ccccc1-2"
Solution: 111 % of control

Problem: Proceed to "O=C(O)c1cc2c([N+](=O)[O-])cccc2[se]1"
Solution: 100 % of control

Problem: Proceed to NC(CC(=O)O)C(=O)OCc1ccccc1 (stereo not drawn)
Solution: 97 % of control

Problem: Proceed to COC(OC)C(C)N1CCCCC1 (stereo not drawn)
Solution: 97 % of control

###

Tested on: P388 leukemia ip, CD2F1 mice, survival T/C
measurement.protocol: NCI In Vivo Anticancer Drug Screen. Data for tumor model P388 Leukemia (intraperitoneal) in CD2F1 (CDF1) mice
test.conditions: endpoint: median survival time; dose: 100.0 mg/kg/injection; schedule: Q04DX003 (ip); vehicle: other; higher = longer survival
Toxic doses and inconclusive results are not listed.
measured.property: T/C

Example cases with answers are listed next.
INSERT INTO results (compound, measured_property, recorded_measurement) VALUES
  ('CC(=O)OCC1OC(N(C(C)=O)c2nc(Cl)c3cc[nH]c3n2)C(OC(C)=O)C1OC(C)=O (centres undefined)', 'T/C', '105 % of control'),
  ('CCCCCCCC(=O)Nc1ccc(CC)cc1', 'T/C', '109 % of control'),
  ('CCCCCCCCCCCCCCCCOc1ccccc1CNc1cc(C(F)(F)F)ccc1Cl', 'T/C', '95 % of control');

Here is the next item to consider.
Problem: Which measured T/C value corresponds to "CSc1cc(C)c(O)c(C)c1" ?
Solution: 109 % of control

###

System: P388 leukemia ip, CD2F1 mice, survival T/C
measurement.protocol: NCI In Vivo Anticancer Drug Screen. Data for tumor model P388 Leukemia (intraperitoneal) in CD2F1 (CDF1) mice
test.conditions: endpoint: median survival time; dose: 25.0 mg/kg/injection; schedule: Q04DX002 (ip); vehicle: saline
Inconclusive results and toxic doses are left out. How the source made its calls: active means survival T/C of 150% or more; inactive means T/C below 125% in these data.
Please reply with one of these outcomes: active, inactive

Example results:
INSERT INTO measurements (molecule, test_system, discrete_label) VALUES
  ('C=C1C(=O)OC2CC1C(OC(C)=O)C/C(C)=C/CC/C(C)=C\CCC2(C)O (centres undefined)', 'P388 leukemia ip, CD2F1 mice, survival T/C', 'inactive'),
  ('CS(=O)(=O)C#CCCCCCCC#CS(C)(=O)=O', 'P388 leukemia ip, CD2F1 mice, survival T/C', 'inactive'),
  ('S=P(N1CC1)(N1CC1)N1CC1', 'P388 leukemia ip, CD2F1 mice, survival T/C', 'active');

Alright, here's another molecule for you.
Problem: Which result was noted for this molecule in the test: "Clc1cc2[nH]cnc2c(Cl)n1"
Solution: inactive

###

Test system: P388 leukemia ip, CD2F1 mice, survival T/C
measurement.protocol: NCI In Vivo Anticancer Drug Screen. Data for tumor model P388 Leukemia (intraperitoneal) in CD2F1 (CDF1) mice
test.conditions: endpoint: median survival time; dose: 6.25 mg/kg/injection; schedule: Q01DX009 (ip); vehicle: saline with Tween-80; higher = longer survival
Toxic doses and inconclusive results are not listed.
measured.property: T/C

INSERT INTO results (compound, recorded_measurement) VALUES
  ('C/C=C(/C)C(=O)O[C@H]1CC[C@@]2(C)[C@@H]3CC[C@H]4[C@]5(O)C[C@H](O)[C@@]6(O)[C@@H](CN7C[C@@H](C)CC[C@H]7[C@@]6(C)O)[C@]5(O)C[C@@]42O[C@@]13O', '88 % of control'),
  ('C#CCNC(=S)N/N=C(\C)c1ccccn1', '97 % of control'),
  ('COc1ccc(CN(CCc2ccc(O)cc2)C(=O)C(F)(F)F)cc1O', '99 % of control'),
  ('Nc1nc(=O)[nH]s1', '98 % of control'),
  ('O=c1c2ccccc2nc(-c2ccccc2)n1-c1cc(C(F)(F)F)cc(C(F)(F)F)c1', '99 % of control');

Problem: Which measured T/C value corresponds to CC1CN1C(=O)c1cc(C(=O)N2CC2C)cc(C(=O)N2CC2C)c1 (stereo not drawn) ?
Solution: 113 % of control

Problem: Proceed to "O=C(NCCCCCCCCCCNC(=O)N1CC1)N1CC1"
Solution: 95 % of control

Problem: Proceed to COc1cc2c(cc1OC)C(C#N)C2 (stereo not drawn)
Solution: 102 % of control
